Values compiled from ChEMBL document CHEMBL5303573.

RUN_PARAMETERS: bacteroides thetaiotaomicron, 12 h, 2 µM
Description: The drug is tested on Bacteroides thetaiotaomicron strain: 7330 for biotransformation. The drug concentrations were measured before and after a 12-h incubation by liquid-chromatography-coupled mass spectrometry (LC–MS)
MEASURED_ENDPOINT: Bacterial Biotransformation

Cc1ccccc1C(OCCN(C)C)c1ccccc1.O=C(O)CC(O)(CC(=O)O)C(=O)O (centres undefined) [ORPHENADRINE CITRATE]; Compound NOT metabolized
CCCc1nn(C)c2c(=O)[nH]c(-c3cc(S(=O)(=O)N4CCN(C)CC4)ccc3OCC)nc12.O=C(O)CC(O)(CC(=O)O)C(=O)O [SILDENAFIL CITRATE]; Compound NOT metabolized
COc1ccc([C@@H]2Sc3ccccc3N(CCN(C)C)C(=O)[C@@H]2OC(C)=O)cc1; Compound metabolized
CN1CCN(C(=O)O[C@H]2c3nccnc3C(=O)N2c2ccc(Cl)cn2)CC1; Compound NOT metabolized
OCCOCCN1CCN(C2=Nc3ccccc3Sc3ccccc32)CC1; Compound NOT metabolized

Specify Bacterial Biotransformation for CC(C)(C)NC[C@H](O)COc1ccccc1C1CCCC1.CC(C)(C)NC[C@H](O)COc1ccccc1C1CCCC1.O=S(=O)(O)O [PENBUTOLOL SULFATE] and stop.
Compound NOT metabolized

Output measured Bacterial Biotransformation for this item: O=C(Nc1ccccc1)OCC(CN1CCCCC1)OC(=O)Nc1ccccc1 (centres undefined)
Compound NOT metabolized

Tell us which Bacterial Biotransformation value is on record for CCC(C)n1ncn(-c2ccc(N3CCN(c4ccc(OCC5COC(Cn6cncn6)(c6ccc(Cl)cc6Cl)O5)cc4)CC3)cc2)c1=O (centres undefined)
Compound NOT metabolized

---

TEST_SUMMARY: The drug is tested on Bacteroides dorei strain: DSM17855 for biotransformation. The drug concentrations were measured before and after a 12-h incubation by liquid-chromatography-coupled mass spectrometry (LC–MS)
RUN_PARAMETERS: phocaeicola dorei, 2 µM
MEASURED_ENDPOINT: Bacterial Biotransformation

Check out these entries, answers already filled in.
CCN(CC)CCOCCOC(=O)C1(c2ccccc2)CCCC1.O=C(O)CC(O)(CC(=O)O)C(=O)O [CARBETAPENTANE CITRATE]; Compound metabolized
O=C(O)COCCN1CCN(C(c2ccccc2)c2ccc(Cl)cc2)CC1 (stereo not drawn) [CETIRIZINE]; Compound metabolized
COc1c(C)c2c(c(O)c1C/C=C(\C)CCC(=O)OCCN1CCOCC1)C(=O)OC2 [MYCOPHENOLATE MOFETIL]; Compound metabolized
CCCCCCOC(=O)/N=C(/N)c1ccc(NCc2nc3cc(C(=O)N(CCC(=O)OCC)c4ccccn4)ccc3n2C)cc1.CS(=O)(=O)O [DABIGATRAN ETEXILATE MESYLATE]; Compound NOT metabolized
NC12CC3CC(CC(C3)C1)C2 [AMANTADINE]; Compound NOT metabolized
CC(=O)Nc1ccc(OC(C)=O)cc1 [DIACETAMATE]; Compound metabolized
CNCC[C@H](Oc1cccc2ccccc12)c1cccs1 [DULOXETINE]; Compound metabolized

Let's switch to this molecule now.
Using the record for CCOC(=O)C1=C(C)NC(C)=C(C(=O)OC)C1c1cccc([N+](=O)[O-])c1 (stereo not drawn) [NITRENDIPINE] , state its measured Bacterial Biotransformation.
Compound metabolized

---

TEST_SUMMARY: The drug is tested on Anaerococcus hydrogenalis strain: DSM7454 for biotransformation. The drug concentrations were measured before and after a 12-h incubation by liquid-chromatography-coupled mass spectrometry (LC–MS)
RUN_PARAMETERS: 2 µM
MEASURED_ENDPOINT: Bacterial Biotransformation

Known results for molecules:
CNC(=C[N+](=O)[O-])NCCSCc1ccc(CN(C)C)o1 [RANITIDINE]; Compound metabolized
O=C(O)CCc1nc(-c2ccccc2)c(-c2ccccc2)o1 [OXAPROZIN]; Compound NOT metabolized
CS(=O)(=O)O.O.O.O.O=C1Cc2cc(CCN3CCN(c4nsc5ccccc45)CC3)c(Cl)cc2N1 [ZIPRASIDONE MESYLATE]; Compound NOT metabolized
Br.COc1ccc2c(c1)[C@]13CCCC[C@@H]1[C@H](C2)N(C)CC3.O [DEXTROMETHORPHAN HYDROBROMIDE]; Compound NOT metabolized
O=C1CC2(CCCC2)CC(=O)N1CCCCN1CCN(c2ncccn2)CC1 [BUSPIRONE]; Compound NOT metabolized

Supply Bacterial Biotransformation value. Item: COc1cc(NC(C)CCCN)c2ncccc2c1.O=P(O)(O)O.O=P(O)(O)O (stereo not given) [PRIMAQUINE PHOSPHATE]
Compound metabolized

Provide one value: measured Bacterial Biotransformation of O=C(O)c1cc(/N=N/c2ccc(S(=O)(=O)Nc3ccccn3)cc2)ccc1O [SULFASALAZINE]
Compound metabolized

Please report Bacterial Biotransformation for the following molecule: CC(=O)CC(c1ccccc1)c1c(O)c2ccccc2oc1=O (stereo not given) [WARFARIN]
Compound NOT metabolized

Specify reported Bacterial Biotransformation for the molecule shown: CC(N)C12CC3CC(CC(C3)C1)C2 (stereo not given) [RIMANTADINE]
Compound NOT metabolized

Output measured Bacterial Biotransformation for this item: COc1cc2c(c(OC)c1OC)-c1ccc(OC)c(=O)cc1[C@@H](NC(C)=O)CC2 [COLCHICINE]
Compound NOT metabolized

---

RUN_PARAMETERS: anaerostipes sp., 12 h, 2 µM
Description: The drug is tested on Anaerostipes sp. strain: fecal isolate for biotransformation. The drug concentrations were measured before and after a 12-h incubation by liquid-chromatography-coupled mass spectrometry (LC–MS)
MEASURED_ENDPOINT: Bacterial Biotransformation

CC(C)NCC(O)c1ccc(NS(C)(=O)=O)cc1 (stereo not drawn) [SOTALOL]; Compound NOT metabolized
CNS(=O)(=O)Cc1ccc2[nH]cc(CCN(C)C)c2c1.O=C(O)CCC(=O)O [SUMATRIPTAN SUCCINATE]; Compound NOT metabolized

---

TEST_SUMMARY: The drug is tested on Bacteroides fragilis strain: ATCC43859 for biotransformation. The drug concentrations were measured before and after a 12-h incubation by liquid-chromatography-coupled mass spectrometry (LC–MS)
RUN_PARAMETERS: 2 µM
MEASURED_ENDPOINT: Bacterial Biotransformation

COc1cc2c(c(OC)c1OC)-c1ccc(OC)c(=O)cc1[C@@H](NC(C)=O)CC2 [COLCHICINE]; Compound metabolized
CN1[C@@H]2CC[C@H]1C[C@@H](OC(=O)c1c[nH]c3ccccc13)C2 [TROPISETRON]; Compound NOT metabolized
Cc1ccccc1C(OCCN(C)C)c1ccccc1.O=C(O)CC(O)(CC(=O)O)C(=O)O (centres undefined) [ORPHENADRINE CITRATE]; Compound NOT metabolized
CS(=O)(=O)O.O.O.O.O=C1Cc2cc(CCN3CCN(c4nsc5ccccc45)CC3)c(Cl)cc2N1 [ZIPRASIDONE MESYLATE]; Compound NOT metabolized
C=CC[C@@H]1/C=C(\C)C[C@H](C)C[C@H](OC)[C@H]2O[C@@](O)(C(=O)C(=O)N3CCCC[C@H]3C(=O)O[C@H](/C(C)=C/[C@@H]3CC[C@@H](O)[C@H](OC)C3)[C@H](C)[C@@H](O)CC1=O)[C@H](C)C[C@@H]2OC.O [TACROLIMUS]; Compound NOT metabolized

Return Bacterial Biotransformation for the following molecule: COc1ccnc(C[S+]([O-])c2nc3ccc(OC(F)F)cc3[nH]2)c1OC (centres undefined) [PANTOPRAZOLE]
Compound metabolized

Specify Bacterial Biotransformation for CN1CCN(C(=O)O[C@H]2c3nccnc3C(=O)N2c2ccc(Cl)cn2)CC1 [ESZOPICLONE] and stop.
Compound NOT metabolized

Provide one value: measured Bacterial Biotransformation of CC(=O)OCC(=O)[C@@]1(OC(C)=O)[C@@H](C)C[C@H]2[C@@H]3C[C@H](F)C4=CC(=O)C=C[C@]4(C)[C@@]3(F)[C@@H](O)C[C@@]21C [DIFLORASONE DIACETATE]
Compound metabolized

Tell me measured Bacterial Biotransformation for CC[C@@]1(O)C(=O)OCc2c1cc1n(c2=O)Cc2cc3c(CN(C)C)c(O)ccc3nc2-1 [TOPOTECAN] please.
Compound NOT metabolized

---

TEST_SUMMARY: The drug is tested on Bacteroides fragilis strain: HMW610 for biotransformation. The drug concentrations were measured before and after a 12-h incubation by liquid-chromatography-coupled mass spectrometry (LC–MS)
RUN_PARAMETERS: 2 µM
MEASURED_ENDPOINT: Bacterial Biotransformation

Examples with answers:
CC#C[C@]1(O)CC[C@H]2[C@@H]3CCC4=CC(=O)CCC4=C3[C@@H](c3ccc(N(C)C)cc3)C[C@@]21C [MIFEPRISTONE]; Compound metabolized
CCOc1ccccc1OCCN[C@H](C)Cc1ccc(OC)c(S(N)(=O)=O)c1.Cl [TAMSULOSIN HYDROCHLORIDE]; Compound NOT metabolized
CCCCC(=O)N(Cc1ccc(-c2ccccc2-c2nnn[nH]2)cc1)[C@H](C(=O)O)C(C)C; Compound metabolized
C#C[C@]1(O)CC[C@H]2[C@@H]3CCC4=Cc5oncc5C[C@]4(C)[C@H]3CC[C@@]21C [DANAZOL]; Compound metabolized
CC(=O)CCCCn1c(=O)c2c(ncn2C)n(C)c1=O [PENTOXIFYLLINE]; Compound NOT metabolized
CCOC(=O)C1=C(C)NC(C)=C(C(=O)OC)C1c1cccc([N+](=O)[O-])c1 (configuration not stated) [NITRENDIPINE]; Compound metabolized

Read the next record carefully.
Report Bacterial Biotransformation for Cc1ccc(S(=O)(=O)NC(=O)NN2CCCCCC2)cc1 [TOLAZAMIDE]
Compound metabolized
